Measured selectivity ratio values are reported for all entries that follow.
testName: Selectivity index, ratio of CC50 for cytotoxicity against golden hamster BSR cells to EC50 for antirabies activity against Rabies virus infected in golden hamster BSR cells
Format: toxicity, cell-based
measurementSetup: read-out: Selectivity Index

Observe how each entry below is paired with its result.
molecule	selectivity ratio
CC(C)/N=c1\cc2n(-c3ccc(Cl)cc3)c3ccccc3nc-2cc1NCc1ccc(Cl)cc1	123
COc1ccc(-n2c3c/c(=N\C(C)C)c(Nc4ccc(F)cc4)cc-3nc3ccccc32)cn1	229
CC(C)/N=c1\cc2n(-c3ccc(F)cc3)c3ccccc3nc-2cc1Nc1ccc(F)cc1	134
Fc1ccc(Nc2cc3nc4ccccc4n(-c4ccc(Cl)cc4)c-3c/c2=N\C2CC2)cc1	47.1
COc1ccc(-n2c3c/c(=N\C4CCC(OC)CC4)c(Nc4ccc(F)cc4)cc-3nc3ccccc32)cn1 (stereo unspecified)	33.1
N=c1cc2n(-c3ccc(Cl)cc3)c3ccccc3nc-2cc1Nc1ccc(Cl)cc1	1.7

Form field selectivity ratio, entry COc1ccc(Nc2cc3nc4ccccc4n(-c4ccc(Cl)cc4)c-3c/c2=N\C(C)C)c(OC)c1 : 17.6

Form field selectivity ratio, entry COc1ccc(Nc2cc3nc4ccccc4n(-c4ccc(Cl)cc4)c-3c/c2=N\C(C)C)cc1 : 19

Form field selectivity ratio, entry CCC/N=c1\cc2n(-c3ccc(OC)nc3)c3ccccc3nc-2cc1Nc1ccc(F)cc1 : 76.4

Form field selectivity ratio, entry COc1ccc(-n2c3c/c(=N\C(C)C)c(Nc4ccc(Cl)cc4)cc-3nc3ccccc32)cn1 : 21.3

Form field selectivity ratio, entry N=c1cc2n(-c3ccc(Cl)cc3)c3ccccc3nc-2cc1Nc1ccccc1 : 1.7

Form field selectivity ratio, entry Clc1ccc(Nc2cc3nc4ccccc4n(-c4ccc(Cl)cc4)c-3c/c2=N\C2CC2)cc1 : 14.2

Form field selectivity ratio, entry CC(C)/N=c1\cc2n(-c3ccc(Cl)cc3)c3ccccc3nc-2cc1Nc1ccc(OC(F)(F)F)cc1 : 182

Form field selectivity ratio, entry CC(C)/N=c1\cc2n(-c3ccccc3)c3ccccc3nc-2cc1NCc1ccccc1 : 76.4

Form field selectivity ratio, entry CCC/N=c1\cc2n(-c3ccc(Cl)cc3)c3ccccc3nc-2cc1Nc1ccc(Cl)cc1 : 13

###

testName: Cytotoxicity against golden hamster BSR cells assessed as reduction in cell viability incubated for 24 hrs by microplate luminometer method
Assay type: toxicity, cell-based, Mesocricetus auratus
measurementSetup: BSR cells
Measured CC50 at 24 h values are reported for all entries that follow.

Observe how each entry below is paired with its result.
smi	CC50 at 24 h
CC(C)/N=c1\cc2n(-c3ccc(F)cc3)c3ccccc3nc-2cc1Nc1ccc(F)cc1	314 µM
CC(C)/N=c1\cc2n(-c3ccc(Cl)cc3)c3ccccc3nc-2cc1Nc1ccc(F)cc1	281 µM
CC(C)/N=c1\cc2n(-c3ccccc3)c3ccccc3nc-2cc1Nc1ccccc1	323 µM

Form field CC50 at 24 h, entry COc1ccc(Nc2cc3nc4ccccc4n(-c4ccc(OC)nc4)c-3c/c2=N\C(C)C)cc1 : 323 µM

Form field CC50 at 24 h, entry N=c1cc2n(-c3ccccc3)c3ccccc3nc-2cc1NCc1ccccc1 : 35.4 µM

Form field CC50 at 24 h, entry CC(C)/N=c1\cc2n(-c3ccc(Cl)cc3)c3ccccc3nc-2cc1Nc1ccc(Cl)cc1 : 323 µM

###

Measured Selectivity Index values are reported for all entries that follow.
testName: Selectivity index, ratio of CC50 for cytotoxicity against human Huh7 cells to EC50 for antiviral activity against S-protein based pseudotyped SARS-CoV-2 infected in Huh7 cells
Format: functional
Answer with the value's number alone.

Observe how each entry below is paired with its result.
smi	Selectivity Index
CC(C)/N=c1\cc2n(-c3ccc(F)cc3)c3ccccc3nc-2cc1Nc1ccc(Cl)cc1	0.6
CC(C)/N=c1\cc2n(-c3ccccc3)c3ccccc3nc-2cc1Nc1ccccc1	10.2

For the next question, use this compound.
Form field Selectivity Index, entry CC(C)/N=c1\cc2n(-c3ccc(Cl)cc3)c3ccccc3nc-2cc1NCc1ccc(Cl)cc1 : 1.3

###

testName: Selectivity index, ratio of CC50 for cytotoxicity against golden hamster BSR cells to EC50 for antirabies activity against Rabies virus infected in golden hamster BSR cells
Format: toxicity, cell-based
measurementSetup: read-out: Selectivity Index
readoutType: selectivity ratio
Answer with the value's number alone.

Observe how each entry below is paired with its result.
smi	selectivity ratio
COc1ccc(Nc2cc3nc4ccccc4n(-c4ccc(Cl)cc4)c-3cc2=N)cc1	1
CC(C)/N=c1\cc2n(-c3ccc(Cl)cc3)c3ccccc3nc-2cc1Nc1ccccc1	21.9
CC(C)/N=c1\cc2n(-c3ccccc3)c3ccccc3nc-2cc1Nc1ccc(Cl)cc1	22.4
CC(C)/N=c1\cc2n(-c3ccccc3)c3ccccc3nc-2cc1Nc1ccccc1	30.1

For the next question, use this compound.
Form field selectivity ratio, entry CCC/N=c1\cc2n(-c3ccc(Cl)cc3)c3ccccc3nc-2cc1Nc1ccc(F)cc1 : 32.6

###

testName: Selectivity index, ratio of CC50 for cytotoxicity against human Huh7 cells to EC50 for antiviral activity against S-protein based pseudotyped SARS-CoV-2 infected in Huh7 cells
Assay type: functional
Measured Selectivity Index values are reported for all entries that follow.

smi	Selectivity Index
Clc1ccc(Nc2cc3nc4ccccc4n(-c4ccc(Cl)cc4)c-3c/c2=N\C2CC2)cc1	>1.9

Form field Selectivity Index, entry CC(C)/N=c1\cc2n(-c3ccccc3)c3ccccc3nc-2cc1Nc1ccc(Cl)cc1 : >1.6

Form field Selectivity Index, entry COc1ccc(Nc2cc3nc4ccccc4n(-c4ccc(Cl)cc4)c-3c/c2=N\C(C)C)cn1 : >1.7

###

Measured selectivity ratio values are reported for all entries that follow.
testName: Selectivity index, ratio of CC50 for cytotoxicity against golden hamster BSR cells to EC50 for antirabies activity against Rabies virus infected in golden hamster BSR cells
Type: toxicity, cell-based
measurementSetup: read-out: Selectivity Index

smi	selectivity ratio
CC(C)/N=c1\cc2n(-c3ccc(F)cc3)c3ccccc3nc-2cc1Nc1ccc(Cl)cc1	55.6
CC(C)/N=c1\cc2n(-c3ccc(Cl)cc3)c3ccccc3nc-2cc1Nc1ccc(F)cc1	61.7
CC(C)/N=c1\cc2n(-c3ccccc3)c3ccccc3nc-2cc1NCc1ccc(F)cc1	9.1
CCC/N=c1\cc2n(-c3ccccc3)c3ccccc3nc-2cc1Nc1ccccc1	19

For the next question, use this compound.
Form field selectivity ratio, entry COc1ccc(Nc2cc3nc4ccccc4n(-c4ccc(Cl)cc4)c-3cc2=N)c(OC)c1 : 1

###

testName: Selectivity index, ratio of CC50 for cytotoxicity against golden hamster BSR cells to EC50 for antirabies activity against Rabies virus infected in golden hamster BSR cells
Format: toxicity, cell-based
measurementSetup: read-out: Selectivity Index
Mark satisfied for reported selectivity ratio of 20 or greater; mark not satisfied for anything smaller.

smi	classification
COc1ccc(-n2c3c/c(=N\C(C)C)c(Nc4cccc(F)c4)cc-3nc3ccccc32)cn1	satisfied

Lookup: Dear colleague, could you confirm whether COc1ccc(Nc2cc3nc4ccccc4n(-c4ccc(Cl)cc4)c-3c/c2=N\C(C)C)cn1 has selectivity ratio at or above 20?
Found: not satisfied

Lookup: Dear colleague, could you confirm whether COc1ccc(Nc2cc3nc4ccccc4n(-c4ccccc4)c-3c/c2=N\C(C)C)cn1 has selectivity ratio at or above 20?
Found: satisfied

Lookup: Dear colleague, could you confirm whether COc1ccc(-n2c3c/c(=N\C4CC4)c(Nc4ccc(F)cc4)cc-3nc3ccccc32)cn1 has selectivity ratio at or above 20?
Found: not satisfied

Lookup: Dear colleague, could you confirm whether COc1ccc(-n2c3c/c(=N\C(C)C)c(Nc4ccccc4)cc-3nc3ccccc32)cn1 has selectivity ratio at or above 20?
Found: satisfied

Lookup: Dear colleague, could you confirm whether N=c1cc2n(-c3ccccc3)c3ccccc3nc-2cc1NCc1ccccc1 has selectivity ratio at or above 20?
Found: not satisfied
